// data source = paper PMC4336329

target: human ether-à-go-go-related gene (hERG) potassium channel (human, UniProt Q12809); assay: primary screen, population patch clamp on CHO cells stably expressing hERG; higher = less effect of the substance
Sequence (Q12809 whole entry, looked up): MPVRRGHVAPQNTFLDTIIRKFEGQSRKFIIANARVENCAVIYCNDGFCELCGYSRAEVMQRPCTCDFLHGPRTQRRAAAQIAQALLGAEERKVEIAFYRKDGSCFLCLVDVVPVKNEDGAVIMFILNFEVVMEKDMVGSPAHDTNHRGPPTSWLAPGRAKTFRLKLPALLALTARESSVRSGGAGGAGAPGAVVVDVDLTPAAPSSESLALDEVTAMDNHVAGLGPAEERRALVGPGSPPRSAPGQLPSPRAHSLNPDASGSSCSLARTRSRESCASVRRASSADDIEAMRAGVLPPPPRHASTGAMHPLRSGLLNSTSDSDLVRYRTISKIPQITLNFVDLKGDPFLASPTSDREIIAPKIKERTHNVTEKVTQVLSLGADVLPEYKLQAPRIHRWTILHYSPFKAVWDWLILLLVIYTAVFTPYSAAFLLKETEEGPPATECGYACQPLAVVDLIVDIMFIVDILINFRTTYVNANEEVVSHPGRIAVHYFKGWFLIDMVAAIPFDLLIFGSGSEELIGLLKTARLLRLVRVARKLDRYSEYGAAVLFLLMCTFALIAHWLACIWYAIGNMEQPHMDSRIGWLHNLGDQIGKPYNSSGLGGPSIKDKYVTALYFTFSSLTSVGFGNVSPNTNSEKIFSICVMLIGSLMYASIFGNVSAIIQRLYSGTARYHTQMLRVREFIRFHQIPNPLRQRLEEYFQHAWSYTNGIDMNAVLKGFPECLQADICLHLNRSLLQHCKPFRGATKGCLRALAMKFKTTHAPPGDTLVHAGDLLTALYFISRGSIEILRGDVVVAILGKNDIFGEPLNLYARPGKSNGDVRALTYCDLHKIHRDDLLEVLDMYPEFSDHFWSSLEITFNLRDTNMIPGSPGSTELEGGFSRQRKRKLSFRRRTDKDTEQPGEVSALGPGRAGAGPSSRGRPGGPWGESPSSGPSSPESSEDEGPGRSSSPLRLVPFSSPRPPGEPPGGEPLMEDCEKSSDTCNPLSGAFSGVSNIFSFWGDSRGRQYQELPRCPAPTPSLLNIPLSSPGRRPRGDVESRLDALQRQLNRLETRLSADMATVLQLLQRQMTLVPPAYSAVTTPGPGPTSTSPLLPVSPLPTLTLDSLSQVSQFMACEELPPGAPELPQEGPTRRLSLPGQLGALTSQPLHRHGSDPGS
Out of some 310,000 compounds screened, about 14,000 (4.5%) showed an effect of 50% or more. Effects have a minus sign here. The sample holds strong results, similar compounds and a random draw of the others, so the mix is not that of the screen.
compounds and their reported hERG current change (%, negative = inhibition) at 10uM
// units = %; emit number, no label

COc1ccc(OCC(=O)N2CCN(C(=O)c3ccco3)CC2)cc1 = -32.3
CCOc1ccc(C(=O)NC(=S)NCc2cccnc2)cc1[N+](=O)[O-] = -2.86
O=C(N/N=C/C=C/c1ccccc1)c1cnccn1 = 6.57
CCOc1ccc(C(=O)NCc2cccnc2)cc1[N+](=O)[O-] = -76
CCOc1ccc(C(=O)NC(=S)Nc2cccnc2)cc1[N+](=O)[O-] = -16.1
COc1ccc(C(=O)NC(=S)NCc2cccnc2)cc1[N+](=O)[O-] = -12.3
N#Cc1ccc(OCC(=O)N2CCN(C(=O)c3ccco3)CC2)cc1 = -71
CCOc1ccc(C(=O)NC(=S)Nc2ccccn2)cc1[N+](=O)[O-] = -2.48
CCCCc1ncc(CN2CCC(n3nccc3NC(=O)c3ccccc3Cl)CC2)[nH]1 = -40.3

Turning now to a further compound:
Bench note, human ether-à-go-go-related gene (hERG) potassium channel (human, UniProt Q12809): CCOC(=O)C1(Cc2cccc(OC)c2)CCN(Cc2cnc(C)s2)CC1 , hERG current change (%, negative = inhibition) at 10uM reads -12.2

###

target: human ether-à-go-go-related gene (hERG) potassium channel (human); test: primary screen, population patch clamp on CHO cells stably expressing hERG; higher = less effect of the substance;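 note: peak tail current of the secondary pulse compared with the same well before compound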
Hit rate of the full screen: of about 310,000 compounds, about 14,000 (4.5%) showed an effect of 50% or more. The effect is printed as a negative number. The full list was thinned out, with strong results kept by preference.
molecules and their reported hERG current change (%, negative = inhibition) at 10uM
// units = %; emit number, no label

CCN1CCN(c2ccc(S(=O)(=O)N3CCOCC3)cc2NC(=O)C(C)Oc2cccc(Cl)c2)CC1 (stereo not shown) = -70.8
COc1cccc(-n2c(CN3CCN(c4ccccn4)CC3)nc3ccc([N+](=O)[O-])cc3c2=O)c1 = -40
CC(Oc1cccc(Cl)c1)C(=O)Nc1cc(S(=O)(=O)N2CCOCC2)ccc1N1CCCCC1 (stereo not shown) = 8.44
COc1ccc(-n2c(CN3CCC(C(N)=O)CC3)nc3ccc([N+](=O)[O-])cc3c2=O)c(OC)c1 = -3.9
COc1ccc(-n2c(CN3CCN(c4ccccc4)CC3)nc3ccc([N+](=O)[O-])cc3c2=O)c(OC)c1 = -10.8
CC(=O)c1ccc(OCC(=O)Nc2ccccc2N2CCCC2)cc1 = -2.74
CCN1CCN(c2ccc(S(=O)(=O)N3CCCCC3)cc2NC(=O)C(C)Oc2ccc(F)cc2)CC1 (stereo not shown) = -72.7
CC(Oc1cccc(Cl)c1)C(=O)Nc1ccccc1N1CCCC1 (stereo not shown) = -15.3
COc1ccc(-n2c(CN3CCN(Cc4ccccc4)CC3)nc3ccc([N+](=O)[O-])cc3c2=O)c(OC)c1 = -51.1
COc1ccc(-n2c(CN3CCOCC3)nc3ccc([N+](=O)[O-])cc3c2=O)c(OC)c1 = -3.17

Turning now to a further molecule:
GET /value?item= COc1ccc(-n2c(CN3CCN(c4ccc(F)cc4)CC3)nc3ccc([N+](=O)[O-])cc3c2=O)c(OC)c1 &field=hERG current change (%, negative = inhibition) at 10uM returns -44.6

###

biological target: human ether-à-go-go-related gene (hERG) potassium channel (human); test: primary screen, population patch clamp on CHO cells stably expressing hERG; higher = less effect of the substance;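 note: peak tail current of the secondary pulse compared with the same well before compound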
The campaign covered roughly 310,000 compounds. About 14,000 (4.5%) showed an effect of 50% or more. Effects have a minus sign here. The sample holds strong results, similar compounds and a random draw of the others, so the mix is not that of the screen.
Met means recorded hERG current change (%, negative = inhibition) at 10uM is -30% or above; Not met means it is below -30%.

COCCN(CC(=O)Nc1cccc(C)c1C)C(=O)c1cc2ccccc2cc1OC = Met
COc1ccc(-c2csc(N3CCN(c4cc5c(cc4Cl)nc(-c4ccncc4)n5CCOCCO)CC3)n2)cc1 = Met

Q. Does the molecule COCCN(CC(=O)Nc1cccc(C)c1C)C(=O)c1ccc2ccccc2n1 have recorded hERG current change (%, negative = inhibition) at 10uM that is -30% or more?
A. Met

Q. Does the molecule Cc1cc(C)n2nc(C(=O)Nc3ccc(S(=O)(=O)N(C)C)cc3)nc2n1 have recorded hERG current change (%, negative = inhibition) at 10uM that is -30% or more?
A. Met

Q. Does the molecule COc1ccccc1NS(=O)(=O)c1cccc(NC(=O)c2nc3nc(C)cc(C)n3n2)c1 have recorded hERG current change (%, negative = inhibition) at 10uM that is -30% or more?
A. Not met

Q. Does the molecule CCOc1ccc(NC(=O)CN(C)C(=O)c2cccnc2Sc2ccc(Cl)cc2)cc1OCC have recorded hERG current change (%, negative = inhibition) at 10uM that is -30% or more?
A. Not met

Q. Does the molecule CCc1cc2c(N3CCN(C)CC3)ncnc2s1.Cl have recorded hERG current change (%, negative = inhibition) at 10uM that is -30% or more?
A. Met

Q. Does the molecule COc1ccc(C(Sc2ccccc2)c2ccccc2)cc1OC (stereo not drawn) have recorded hERG current change (%, negative = inhibition) at 10uM that is -30% or more?
A. Met

Q. Does the molecule COc1ccccc1NS(=O)(=O)c1cccc(NC(=O)c2ccc3ccccc3n2)c1 have recorded hERG current change (%, negative = inhibition) at 10uM that is -30% or more?
A. Met

###

molecular target: human ether-à-go-go-related gene (hERG) potassium channel (human, UniProt Q12809); test: primary screen, population patch clamp on CHO cells stably expressing hERG; higher = less effect of the substance;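 note: peak tail current of the secondary pulse compared with the same well before compound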
Screen size: about 310,000 compounds; about 14,000 (4.5%) showed an effect of 50% or more. Effects have a minus sign here. Shown is part of a subset that was picked to be rich in strong results.
assay-endpoint: hERG current change (%, negative = inhibition) at 10uM (%)
// units = %; emit number, no label

Reference set (9 entries):
CCn1c(SCC(=O)Nc2nc(C)c(C)s2)nnc1-c1ccco1 = -68.8
O=C(CSc1nnc(-c2ccccc2)n1-c1ccc(Cl)cc1)N/N=C/c1ccco1 = -55
Cc1ccc(/C=N/NC(=O)CSc2nnc(-c3ccccc3)n2-c2ccc(Cl)cc2)o1 = -21.8
O=C(CSc1nnc(-c2ccc(Cl)cc2)n1-c1ccc(Cl)cc1)N/N=C/c1ccco1 = -41.7
CCn1c(SCC(=O)N/N=C/C(C)=C/c2ccco2)nnc1-c1ccccc1 = -55.1
CCc1nnc(NC(=O)CSc2nnc(-c3ccco3)n2CC)s1 = 13.7
CCn1c(SCC(=O)N/N=C/C(C)=C\c2ccco2)nnc1-c1ccccc1 = -39
CCn1c(SCC(=O)Nc2nc(C)c(C)s2)nnc1-c1cccnc1 = -26.2
CCn1c(SCC(=O)Nc2nnc(C)s2)nnc1-c1ccco1 = -5.98

GET /value?item= CCn1c(Cc2ccccc2)nnc1SCC(=O)Nc1nc(C)c(C)s1 &field=hERG current change (%, negative = inhibition) at 10uM returns 9.3

###

target: human ether-à-go-go-related gene (hERG) potassium channel (human, UniProt Q12809); test: primary screen, population patch clamp on CHO cells stably expressing hERG; higher = less effect of the substance;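 note: peak tail current of the secondary pulse compared with the same well before compound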
The whole screen tested about 310,000 compounds, of which about 14,000 (4.5%) showed an effect of 50% or more. Effects have a minus sign here. The entries come from a sample that favours strong results as a whole.
molecules and their reported hERG current change (%, negative = inhibition) at 10uM
# include the unit after the value

Reference set (3 entries):
O=C(CSc1ncn[nH]1)Nc1cccc(S(=O)(=O)N2CCCCCC2)c1 = -77.1%
Cn1cnnc1SCC(=O)Nc1cccc(S(=O)(=O)N2CCCCCC2)c1 = -17.4%
O=C(NC(=S)NC1CCSC1=O)c1cccs1 (stereo not drawn) = 15.9%

GET /value?item= Cc1ccc(CONC(=O)c2ccc(OC(F)F)cc2)cc1 &field=hERG current change (%, negative = inhibition) at 10uM returns -30.9%

GET /value?item= COCCn1cnnc1SCC(=O)Nc1cccc(S(=O)(=O)N2CCCCCC2)c1 &field=hERG current change (%, negative = inhibition) at 10uM returns -60.3%

GET /value?item= CCCCOC(=O)c1ccc(NC(=O)c2ocnc2C)cc1 &field=hERG current change (%, negative = inhibition) at 10uM returns -8.8%

GET /value?item= CCN(C(=O)c1cccs1)c1nc(-c2ccc(OC)cc2)cs1 &field=hERG current change (%, negative = inhibition) at 10uM returns 23.1%

GET /value?item= Cc1ccc(S(=O)(=O)N2CCCCC2)cc1NC(=O)CSc1ncn[nH]1 &field=hERG current change (%, negative = inhibition) at 10uM returns 12%

GET /value?item= O=C(CNC(=O)c1cccc(Br)c1)N/N=C/c1ccc[nH]1 &field=hERG current change (%, negative = inhibition) at 10uM returns 22.5%

GET /value?item= COc1cc2c(cc1OC)CN(C(=O)c1cc(Cl)nc(Cl)c1)CC2 &field=hERG current change (%, negative = inhibition) at 10uM returns 12.1%

GET /value?item= CCN(CC)CCCN(C(=O)c1cccs1)c1nc(-c2ccc(OC)cc2)cs1 &field=hERG current change (%, negative = inhibition) at 10uM returns -83.3%

GET /value?item= O=S(=O)(c1ccccc1)N(CC1CO1)c1cc(Cl)ccc1Cl (stereo not drawn) &field=hERG current change (%, negative = inhibition) at 10uM returns 14.2%

GET /value?item= COc1ccc(-c2csc(N(CCCN(C)C)C(=O)c3cccs3)n2)cc1.Cl &field=hERG current change (%, negative = inhibition) at 10uM returns -73.9%

GET /value?item= COc1ccc(-c2csc(N(CC3CCCO3)C(=O)c3cccs3)n2)cc1 (stereo not drawn) &field=hERG current change (%, negative = inhibition) at 10uM returns -11.4%

GET /value?item= CCOCCNC(=O)c1ccc2c3c(cccc13)CC2 &field=hERG current change (%, negative = inhibition) at 10uM returns 3.39%

GET /value?item= COc1ccc([C@H]2CC(=O)C=C(c3ccc(OC(F)(F)F)cc3)C2)cc1 &field=hERG current change (%, negative = inhibition) at 10uM returns 5.59%

GET /value?item= COc1ccc(-c2csc(N(C)C(=O)c3cccs3)n2)cc1 &field=hERG current change (%, negative = inhibition) at 10uM returns -0.276%

GET /value?item= CCn1cc(C(=O)O)c(=O)c2cnc(N3CCN(C(=S)Nc4ccccc4C(F)(F)F)CC3)nc21 &field=hERG current change (%, negative = inhibition) at 10uM returns 6.26%

GET /value?item= CCCCNc1nc2c(c(=O)n(C)c(=O)n2C)n1CCC &field=hERG current change (%, negative = inhibition) at 10uM returns 9.61%

GET /value?item= COCCn1cnnc1SCC(=O)Nc1cccc(S(=O)(=O)N2CCCCC2)c1 &field=hERG current change (%, negative = inhibition) at 10uM returns -17.8%

GET /value?item= COC(=O)C(C)(C(=O)OC)c1ccccc1[N+](=O)[O-] &field=hERG current change (%, negative = inhibition) at 10uM returns 7.93%
